# TARGET SYSTEM: CDK-2/cyclin A (Homo sapiens)
# TEST DESCRIPTION: CDK inhibition assay, CDK-2/cyclin A against Histone HI, 33P-ATP
# Assay type: biochemical
# MEASUREMENT PARAMETERS: at 500 nM; Table-6; read-out: In vitro CDK2 % of inhibition
# inhibition at 0.5 µM listing for each entry below
QUANTITY KIND: inhibition at 0.5 µM

# LINE NOTATION, MEASUREMENT
data = [
    ("CSc1ccccc1-c1cnc2[nH]cc(-c3ccnc(NC4CCCC4)n3)c2c1", "> 70%"),
    ("FC(F)(F)Oc1ccc(-c2cnc3[nH]cc(-c4ccnc(NC5CC5)n4)c3c2)cc1", "> 70%"),
    ("Cc1ccc(-c2cnc3[nH]cc(-c4ccnc(NC5CC5)n4)c3c2)cc1", "> 70%"),
    ("COc1ccc2[nH]c(-c3cnc4[nH]cc(-c5ccnc(NC6CC6)n5)c4c3)cc2c1", "> 50%"),
    ("FC(F)(F)Oc1ccc(-c2cnc3[nH]cc(-c4ccnc(NC5CCCCCC5)n4)c3c2)cc1", "> 50%"),
    ("CSc1ccc(-c2cnc3[nH]cc(-c4ccnc(NC5CCCCCC5)n4)c3c2)cc1", "> 50%"),
    ("FC(F)(F)c1cccc(-c2cnc3[nH]cc(-c4ccnc(NC5CCCCCC5)n4)c3c2)c1", "> 70%"),
]
